// provenance: paper PMC8452638

System: RAD-51 (nematode)
Assay: stopped-flow Cy3 fluorescence
Conditions: SF buffer: 50 mM Tris-HCl pH 7.5, 5 mM MgCl2, 50 mM NaCl, 2 mM ATP or ADP or no nucleotide; EMSA 25 C with 0.125% glutaraldehyde; BLI room temperature with …
Readout Kind: IC50 (nM)
I only need the number, in nM, no unit after it.

# get_value(readout='IC50', item= TTTTTTTTTTTTTTTTTTTTTTTTTTTTTTTTTTTTTTTTTTT [Cy3-43mer (label position not stated)] )
200
